Reported melting point values for the following molecules.

# compound.structure, melting point
data = [
    ("O=C(O)c1cccc(-c2cnn(-c3ccc(C(F)(F)F)cc3)c2)c1", "218 to 220 °C"),
]

Fill in: melting point of O=C(O)c1ccc(-c2cnn(-c3cccc(OC(F)(F)F)c3)c2)cc1 is ___ 230 to 231 °C

Fill in: melting point of O=C(O)c1cccc(-c2ncn(-c3cccc(F)c3)n2)c1 is ___ 266 to 268 °C

Fill in: melting point of COc1ccc2c(c1)-c1nn(-c3cccc(C(=O)O)c3)cc1C2 is ___ 225 to 227 °C

Fill in: melting point of CC(C)c1ccc(-c2nn(-c3cccc(C(=O)O)c3)c(=O)s2)cc1 is ___ 220 to 221 °C

Fill in: melting point of O=C(O)c1cccc(-n2cnc(-c3ccc(OCc4ccccc4)cc3)n2)c1 is ___ 259 to 261 °C

Fill in: melting point of Cc1ccc(-c2cnn(-c3cccc(C(=O)O)c3)c2)cc1 is ___ 208 to 209 °C
